Please respond with reported MIC for every item in the list.
Tested on: E. coli K88
test context: MHB, 37°C, 18-24 h, at least three times in duplicate
No end group written: not given here.

Solved cases below.
>>> data_value("RKKTRKR-NH2 [RR7]")
">256 µM"
>>> data_value("FRIRVRV-NH2 [FV7, reference compound]")
"16 µM"

Hey, can you go through the list below and give me MIC for every item?
1. RFRRLFRIRVRVLKKI-NH2 [R-FV-I16]
2. RFRRLRKKTRKRLKKI-NH2 [RI16]

Reply:
1. 2 µM
2. >256 µM
